Assay: Oral feasibility PK in dogs (paclitaxel capsules, plasma HPLC)
Type: in vivo
Settings: male, beagle, dog, plasma, po, 11.14 mg/kg
Readout name: Cmax (ng/mL)
State just the number; it will be interpreted in ng/mL.

Quick one: Cmax of CC(=O)O[C@H]1C(=O)[C@@]2(C)[C@H]([C@H](OC(=O)c3ccccc3)[C@]3(O)C[C@H](OC(=O)[C@H](O)[C@@H](NC(=O)c4ccccc4)c4ccccc4)C(C)=C1C3(C)C)[C@]1(OC(C)=O)CO[C@@H]1C[C@@H]2O ? 63

====

Assay: Oral feasibility PK in dogs (paclitaxel capsules, plasma HPLC)
Format: in vivo
Conditions: male, beagle, dog, plasma, po, 3.23 mg/kg; read-out: tmax (time of maximum concentration observed)
Readout name: Tmax (h)
State just the number; it will be interpreted in h.

Quick one: Tmax of CC(=O)O[C@H]1C(=O)[C@@]2(C)[C@H]([C@H](OC(=O)c3ccccc3)[C@]3(O)C[C@H](OC(=O)[C@H](O)[C@@H](NC(=O)c4ccccc4)c4ccccc4)C(C)=C1C3(C)C)[C@]1(OC(C)=O)CO[C@@H]1C[C@@H]2O [paclitaxel] ? 1

====

Assay: Oral feasibility PK in dogs (paclitaxel capsules, plasma HPLC)
Format: in vivo
Conditions: dog, plasma; male beagle IOF-8, oral, 3 capsules Vitamin E TPGS/DMI formulation, 6.88 mg/kg; read-out: tmax (time of maximum concentration observed)
Readout name: Tmax
Kindly write the number and append the unit.

Quick one: Tmax of CC(=O)O[C@H]1C(=O)[C@@]2(C)[C@H]([C@H](OC(=O)c3ccccc3)[C@]3(O)C[C@H](OC(=O)[C@H](O)[C@@H](NC(=O)c4ccccc4)c4ccccc4)C(C)=C1C3(C)C)[C@]1(OC(C)=O)CO[C@@H]1C[C@@H]2O ? 30 min

====

Assay: Oral feasibility PK in dogs (paclitaxel capsules, plasma HPLC)
Type: in vivo
Settings: dog, plasma; male beagle IOF-8, oral, 3 capsules Vitamin E TPGS/DMI formulation, 6.88 mg/kg
Readout name: Cmax (ng/mL)
State just the number; it will be interpreted in ng/mL.

Quick one: Cmax of CC(=O)O[C@H]1C(=O)[C@@]2(C)[C@H]([C@H](OC(=O)c3ccccc3)[C@]3(O)C[C@H](OC(=O)[C@H](O)[C@@H](NC(=O)c4ccccc4)c4ccccc4)C(C)=C1C3(C)C)[C@]1(OC(C)=O)CO[C@@H]1C[C@@H]2O ? 92

====

Assay: Oral feasibility PK in dogs (paclitaxel capsules, plasma HPLC)
Assay type: in vivo
Conditions: male, beagle, dog, plasma, po, 3.27 mg/kg
Readout name: Cmax (ng/mL)
State just the number; it will be interpreted in ng/mL.

Quick one: Cmax of CC(=O)O[C@H]1C(=O)[C@@]2(C)[C@H]([C@H](OC(=O)c3ccccc3)[C@]3(O)C[C@H](OC(=O)[C@H](O)[C@@H](NC(=O)c4ccccc4)c4ccccc4)C(C)=C1C3(C)C)[C@]1(OC(C)=O)CO[C@@H]1C[C@@H]2O [paclitaxel] ? 97

====

Assay: Oral feasibility PK in dogs (paclitaxel capsules, plasma HPLC)
Format: in vivo
Details: male, beagle, dog, plasma, po, 3.27 mg/kg; read-out: tmax (time of maximum concentration observed)
Protocol: The formulation was as follows: […] and was hand filled into single 0 hard gelatin capsules to a dose of approximately 34 mg/capsule. Capsules were inserted into the esophagus and followed with a brief squirt of water and the animals held until swallowing was observed.
Readout name: Tmax (h)
State just the number; it will be interpreted in h.

Quick one: Tmax of CC(=O)O[C@H]1C(=O)[C@@]2(C)[C@H]([C@H](OC(=O)c3ccccc3)[C@]3(O)C[C@H](OC(=O)[C@H](O)[C@@H](NC(=O)c4ccccc4)c4ccccc4)C(C)=C1C3(C)C)[C@]1(OC(C)=O)CO[C@@H]1C[C@@H]2O ? 1
